Provide the recorded half-life at 1 μM for the entries that follow.
- experiment summary: Metabolic stability in lung microsomes
- Type: in vitro ADME, male Sprague-Dawley rat
- assay context: male, Sprague-Dawley, rat, lung microsomes, pH 7.4
Quick reminder: number only, in min, skip the unit.

Inquiry: Reported half-life at 1 μM for Clc1ccccc1CN1CCOCC1 : what is it?
Reply text: 2.4

Inquiry: And what about the compound Fc1cccc(Cl)c1CN1CCOCC1 ?
Reply text: 1.5

* * *

- experiment summary: Metabolic stability in lung microsomes
- Format: in vitro ADME, male B6C2F1 mouse
- assay context: male, B6C2F1, mouse, lung microsomes, pH 7.4
assay endpoint: microsomal CLint at 1 μM (µL/min/mg)
Could you give me the number in µL/min/mg? Just the number is fine.

Inquiry: What value of microsomal CLint at 1 μM has been recorded for this entry: Fc1cccc(Cl)c1CN1CCOCC1 [Compound 7, 4-(2-chloro-6-fluorobenzyl)morpholine]
Reply text: 551

Inquiry: Thanks! And Clc1ccccc1CN1CCOCC1 [Compound 3, 4-(2-chlorobenzyl)morpholine] ?
Reply text: 433

* * *

Kindly supply the reported selectivity ratio values for the records listed here.
- Tested on: CYP2A6 / CYP2A13
- experiment summary: Spectral ligand binding assay
- Design: species or system human
- assay context: human, Selectivity Kd (2A6)/ Kd (2A13), ratio of the CYP2A6 value to the CYP2A13 value

Inquiry: Dear colleague, I am looking for the recorded selectivity ratio of the following molecule: Clc1cccc(CN2CCOCC2)c1Cl
Reply text: ≥ 9.9

Inquiry: // query: Cc1cccc(Cl)c1CN1CCOCC1
Reply text: > 400

Inquiry: Please give the result for Clc1cccc(Cl)c1CN1CCOCC1 too.
Reply text: > 400

Inquiry: Would you kindly repeat that for Clc1cccc(CN2CCOCC2)c1 ?
Reply text: ≥ 5.8

Inquiry: Query CC(c1ccccc1Cl)N1CCOCC1 (stereo not shown) next
Reply text: ≥ 70.8

Inquiry: Repeat for the following molecule: Clc1ccsc1CN1CCOCC1
Reply text: ≥ 22.3

Inquiry: Thanks! And Clc1ccc(CN2CCOCC2)cc1 ?
Reply text: ≥ 1.5

Inquiry: Further, for Clc1ccccc1Cn1ccnc1 ?
Reply text: ≥ 1

Inquiry: Field entry: Clc1cccc(Cl)c1Cn1ccnc1
Reply text: ≥ 9

Inquiry: Also, CC1CN(Cc2cccc(Cl)c2Cl)CC(C)O1 (stereo not shown) please.
Reply text: ≥ 12.5

Inquiry: Entry to check: Clc1ccc(CN2CCOCC2)c(Cl)c1
Reply text: ≥ 5.8

Inquiry: Same thing, different molecule: c1csc(CN2CCOCC2)c1
Reply text: ≥ 15.1

Inquiry: Same thing, different molecule: Clc1ccccc1CN1CCSCC1
Reply text: 18

* * *

- experimental target: human CYP2A6 (Homo sapiens)
- Sequence (P11509 with tags, fused parts or gaps limits assumed): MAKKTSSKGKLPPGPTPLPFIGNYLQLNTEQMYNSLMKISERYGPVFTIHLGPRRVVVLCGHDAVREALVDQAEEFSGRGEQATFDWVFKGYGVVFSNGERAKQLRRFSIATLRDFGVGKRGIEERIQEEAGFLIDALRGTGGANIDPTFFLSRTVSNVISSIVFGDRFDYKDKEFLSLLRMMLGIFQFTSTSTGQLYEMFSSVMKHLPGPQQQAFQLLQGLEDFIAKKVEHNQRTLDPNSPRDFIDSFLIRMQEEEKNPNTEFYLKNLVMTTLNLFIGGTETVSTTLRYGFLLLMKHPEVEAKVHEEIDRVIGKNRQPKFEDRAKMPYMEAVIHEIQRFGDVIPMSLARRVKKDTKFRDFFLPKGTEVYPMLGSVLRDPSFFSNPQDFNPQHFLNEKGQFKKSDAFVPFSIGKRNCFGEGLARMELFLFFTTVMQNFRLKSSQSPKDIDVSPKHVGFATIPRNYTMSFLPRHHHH
- experiment summary: Spectral ligand binding assay
- assay context: read-out: Kd 2A6; spectral titration; ≥ = minimal Kd value
pKd: −log10 of the molar value.
assay endpoint: pKd

Inquiry: Requested field: pKd. Item: Clc1ccccc1CCN1CCOCC1
Reply text: ≤ 3.22

* * *

- experimental target: UniProt P11509
- experiment summary: Spectral ligand binding assay
- assay context: Kd 2A6, spectral titration; ≥ = minimal Kd value
pKd: −log10 of the molar value.
assay endpoint: pKd

Inquiry: Please give the measured pKd for this molecule: Clc1cccc(Cl)c1Cn1ccnc1 [Compound 17, 1-(2,6-dichlorobenzyl)-1H-imidazole]
Reply text: 6.05

Inquiry: One more molecule: Cc1cccc(Cl)c1CN1CCOCC1 [Compound 9, 4-(2-chloro-6-methylbenzyl)morpholine]
Reply text: 3.29

Inquiry: Next molecule: Clc1cccc(CN2CCOCC2)c1Cl [Compound 12, 4-(2,3-dichlorobenzyl)morpholine]
Reply text: ≤ 3.52

Inquiry: Do the same for CC1CN(Cc2cccc(Cl)c2Cl)CC(C)O1 (stereo not shown) [Compound 14] please
Reply text: ≤ 3.34

Inquiry: Follow-up item: Clc1ccc(CN2CCOCC2)c(Cl)c1 [Compound 13, 4-(2,4-dichlorobenzyl)morpholine]
Reply text: ≤ 3.70

Inquiry: Next up: Clc1ccccc1Cn1ccnc1 [Compound 16, 1-(2-chlorobenzyl)-1H-imidazole]
Reply text: 7.00

Inquiry: Clc1ccsc1CN1CCOCC1 [Compound 20] , same question.
Reply text: ≤ 3.62

Inquiry: And CC(c1ccccc1Cl)N1CCOCC1 (stereo not shown) [Compound 23, 4-(1-(2-chlorophenyl)ethyl)morpholine] ?
Reply text: ≤ 3.27

Inquiry: Next up: Clc1cccc(CN2CCOCC2)c1 [Compound 10, 4-(3-chlorobenzyl)morpholine]
Reply text: ≤ 3.40

Inquiry: Another molecule to check: CCc1ccccc1CN1CCOCC1 [Compound 6, 4-(2-ethylbenzyl)morpholine]
Reply text: ≤ 3.24

Inquiry: What do we get for Clc1cccc(Cl)c1CN1CCOCC1 [Compound 8, 4-(2,6-dichlorobenzyl)morpholine] ?
Reply text: ≤ 3.28

Inquiry: Let us now turn to Clc1ccc(CN2CCOCC2)cc1 [Compound 11, 4-(4-chlorobenzyl)morpholine]
Reply text: ≤ 3.61

Inquiry: Now the molecule c1csc(CN2CCOCC2)c1 [Compound 19, 4-(thiophen-2-ylmethyl)morpholine]
Reply text: ≤ 3.33

* * *

- experimental target: hERG (Homo sapiens, UniProt Q12809)
- Sequence (Q12809 whole entry): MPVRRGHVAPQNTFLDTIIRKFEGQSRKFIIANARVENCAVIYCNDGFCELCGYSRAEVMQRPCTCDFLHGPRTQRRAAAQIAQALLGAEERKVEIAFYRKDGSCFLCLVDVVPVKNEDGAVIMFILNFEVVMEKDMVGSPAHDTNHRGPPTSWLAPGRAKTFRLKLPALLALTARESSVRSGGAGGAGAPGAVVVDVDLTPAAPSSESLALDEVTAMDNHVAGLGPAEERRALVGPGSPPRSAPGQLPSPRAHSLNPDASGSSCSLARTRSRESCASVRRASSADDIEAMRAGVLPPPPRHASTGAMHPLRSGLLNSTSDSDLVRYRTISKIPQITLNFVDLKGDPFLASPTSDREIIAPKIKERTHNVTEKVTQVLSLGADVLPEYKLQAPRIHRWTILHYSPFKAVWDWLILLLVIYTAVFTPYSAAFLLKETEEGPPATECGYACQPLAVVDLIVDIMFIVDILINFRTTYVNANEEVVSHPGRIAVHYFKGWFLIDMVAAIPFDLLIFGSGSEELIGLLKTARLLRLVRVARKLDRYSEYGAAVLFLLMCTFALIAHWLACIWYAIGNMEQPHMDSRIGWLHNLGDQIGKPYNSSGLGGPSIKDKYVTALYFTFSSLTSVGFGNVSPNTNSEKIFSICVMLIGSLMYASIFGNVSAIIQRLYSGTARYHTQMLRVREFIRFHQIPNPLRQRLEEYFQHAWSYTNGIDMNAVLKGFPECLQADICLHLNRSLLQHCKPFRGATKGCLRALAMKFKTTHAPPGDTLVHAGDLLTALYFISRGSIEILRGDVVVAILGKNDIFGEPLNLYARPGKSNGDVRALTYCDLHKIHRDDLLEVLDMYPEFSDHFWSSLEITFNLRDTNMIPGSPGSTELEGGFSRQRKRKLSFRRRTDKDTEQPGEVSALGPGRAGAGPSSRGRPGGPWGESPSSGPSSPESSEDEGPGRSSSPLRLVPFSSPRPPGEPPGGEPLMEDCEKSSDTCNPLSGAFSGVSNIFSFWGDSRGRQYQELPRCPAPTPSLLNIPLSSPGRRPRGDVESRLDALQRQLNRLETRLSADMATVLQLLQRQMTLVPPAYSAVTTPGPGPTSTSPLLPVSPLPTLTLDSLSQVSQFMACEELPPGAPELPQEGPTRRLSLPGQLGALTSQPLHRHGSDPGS
- experiment summary: hERG patch clamp assay
- Assay type: cell-based
- assay context: human
assay endpoint: inhibition at 10 µM (%)
Only the number, expressed in %, is required.

Inquiry: Recorded inhibition at 10 µM of Fc1cccc(Cl)c1CN1CCOCC1 , please.
Reply text: 24.8

Inquiry: Now give it for Clc1ccccc1CN1CCOCC1 too.
Reply text: 13.9

* * *

- experimental target: human CYP2A6 (Homo sapiens, UniProt P11509)
- experiment summary: Coumarin metabolism assay
- assay context: read-out: Ki 2A6; coumarin substrate
pKi: −log10 of the molar value.
assay endpoint: pKi

Inquiry: So what does the record say about pKi for Clc1ccccc1CCN1CCOCC1 ?
Reply text: ≤ 3.00

* * *

- experimental target: CYP1A2 (Homo sapiens)
- Sequence (P05177 2-516 limits assumed): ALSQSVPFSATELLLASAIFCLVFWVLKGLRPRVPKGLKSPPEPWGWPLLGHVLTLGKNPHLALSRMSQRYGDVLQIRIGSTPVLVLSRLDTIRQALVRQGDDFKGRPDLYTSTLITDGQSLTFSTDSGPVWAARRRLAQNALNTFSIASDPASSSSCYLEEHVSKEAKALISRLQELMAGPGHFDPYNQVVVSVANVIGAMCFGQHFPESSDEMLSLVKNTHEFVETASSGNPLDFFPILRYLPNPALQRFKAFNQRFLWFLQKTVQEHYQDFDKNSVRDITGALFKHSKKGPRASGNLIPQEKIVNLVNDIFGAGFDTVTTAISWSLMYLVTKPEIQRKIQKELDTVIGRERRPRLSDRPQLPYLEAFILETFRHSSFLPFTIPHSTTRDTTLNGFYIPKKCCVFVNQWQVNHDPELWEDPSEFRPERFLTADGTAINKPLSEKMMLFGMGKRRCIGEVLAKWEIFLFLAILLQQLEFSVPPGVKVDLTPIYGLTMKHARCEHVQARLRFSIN
- experiment summary: Metabolic stability phenotyping with recombinantly expressed CYPs
- Type: in vitro ADME
- assay context: human, recombinant CYP1A2, pH 7.4
assay endpoint: half-life at 1 μM (h)
Quick reminder: number only, in h, skip the unit.

Inquiry: Please give the measured half-life at 1 μM for this compound: Fc1cccc(Cl)c1CN1CCOCC1
Reply text: 20.2

Inquiry: Next entry: Clc1ccccc1CN1CCOCC1
Reply text: 38.6

* * *

- System: CYP2A6 / CYP2A13
- experiment summary: Coumarin metabolism assay
- assay context: human, pH 7.4, probe coumarin (7-hydroxylation), Selectivity Ki (2A6)/ Ki (2A13), ratio of the CYP2A6 value to the CYP2A13 value
assay endpoint: selectivity ratio at 10 min
Hey, just send me the number, nothing else.

Inquiry: Field request: selectivity ratio at 10 min | item: Clc1ccccc1Cn1ccnc1
Reply text: 1

Inquiry: Entry to check: Clc1cccc(CN2CCOCC2)c1
Reply text: 1.4

Inquiry: Same question, Fc1cccc(Cl)c1CN1CCOCC1 this time
Reply text: 7.5

Inquiry: Queued: Clc1ccccc1CN1CCSCC1
Reply text: 8

Inquiry: Then this molecule: Clc1ccsc1CN1CCOCC1
Reply text: 7.9

Inquiry: Then Clc1cccc(Cl)c1CN1CCOCC1 ?
Reply text: 13.7

Inquiry: Next record, please: c1ccc2c(CN3CCOCC3)cccc2c1
Reply text: 2.3

Inquiry: Cool, now Cc1cccc(Cl)c1CN1CCOCC1
Reply text: 15

Inquiry: Quick one: CC(c1ccccc1Cl)N1CCOCC1 (stereo not drawn)
Reply text: 6.2

Inquiry: Try this molecule too: Clc1cccc(Cl)c1Cn1ccnc1
Reply text: 0.4

Inquiry: Another molecule: Clc1ccc(CN2CCOCC2)cc1
Reply text: 1

Inquiry: Subsequent entry: c1csc(CN2CCOCC2)c1
Reply text: 2.1
